Tested on: HepG2 cells
Test: Test Example 2: inhibition of apolipoprotein B secretion from HepG2 cells, ELISA (also used for metabolites in Test Example 8)
Assay type: cell-based
Details: Homo sapiens, 24 hours, apo B in supernatant by ELISA, read-out: Test Example 2 Inhibition of apo B secretion IC50
readout_kind: IC50 (nM)

{"columns": ["molecule", "recorded_number"],
 "data": [
  ["CCOC(=O)c1cc(CC(=O)OCC(C(=O)OCC)(C(=O)OCC)c2ccccc2)ccc1NC(=O)c1ccccc1-c1ccc(C(F)(F)F)cc1 [Example 9-4]", 9.9]
]}

A: CN(C)C(=O)c1cc(CC(=O)OCC2(c3ccccc3)CCCC2)ccc1NC(=O)c1ccccc1-c1ccc(C(F)(F)F)cc1 [Example 2-102]
B: CCOC(=O)C(COC(=O)Cc1ccc(NC(=O)c2ccc(OC(C)C)cc2-c2ccc(C(F)(F)F)cc2)c(C(=O)N(C)C)c1)(C(=O)OCC)c1ccccc1 [Example 2-83]
Query: Identify the entry with the smaller IC50: A or B . Choose, then provide that item's label.
Response: B

====

Target: Microsomal triglyceride transfer protein (MTP) from bovine liver (Bos taurus)
Construct: from tissue; host or cells: bovine liver
Sequence (P55156 12-887): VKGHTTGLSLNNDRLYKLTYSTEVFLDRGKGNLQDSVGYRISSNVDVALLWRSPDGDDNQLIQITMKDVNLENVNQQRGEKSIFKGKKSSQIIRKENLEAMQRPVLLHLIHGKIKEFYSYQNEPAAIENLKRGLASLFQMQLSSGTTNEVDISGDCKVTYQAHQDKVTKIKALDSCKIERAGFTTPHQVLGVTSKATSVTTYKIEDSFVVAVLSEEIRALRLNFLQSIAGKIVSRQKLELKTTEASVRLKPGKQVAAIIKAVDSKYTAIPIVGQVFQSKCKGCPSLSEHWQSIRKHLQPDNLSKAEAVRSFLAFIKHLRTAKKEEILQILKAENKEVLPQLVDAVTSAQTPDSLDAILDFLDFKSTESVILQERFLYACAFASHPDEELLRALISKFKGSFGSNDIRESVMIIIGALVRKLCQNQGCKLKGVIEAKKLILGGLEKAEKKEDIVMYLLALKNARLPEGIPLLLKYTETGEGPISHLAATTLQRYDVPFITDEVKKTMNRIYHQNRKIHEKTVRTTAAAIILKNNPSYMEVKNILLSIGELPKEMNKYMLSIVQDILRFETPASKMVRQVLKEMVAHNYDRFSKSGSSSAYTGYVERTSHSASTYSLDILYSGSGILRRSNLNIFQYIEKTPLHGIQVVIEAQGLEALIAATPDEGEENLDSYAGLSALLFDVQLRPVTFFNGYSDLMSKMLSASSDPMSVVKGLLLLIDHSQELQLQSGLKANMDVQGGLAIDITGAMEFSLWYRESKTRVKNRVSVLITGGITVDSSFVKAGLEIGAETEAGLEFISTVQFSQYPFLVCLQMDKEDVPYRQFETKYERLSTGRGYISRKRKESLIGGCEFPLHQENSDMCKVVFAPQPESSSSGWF
Sequence (P05307 21-510 partner): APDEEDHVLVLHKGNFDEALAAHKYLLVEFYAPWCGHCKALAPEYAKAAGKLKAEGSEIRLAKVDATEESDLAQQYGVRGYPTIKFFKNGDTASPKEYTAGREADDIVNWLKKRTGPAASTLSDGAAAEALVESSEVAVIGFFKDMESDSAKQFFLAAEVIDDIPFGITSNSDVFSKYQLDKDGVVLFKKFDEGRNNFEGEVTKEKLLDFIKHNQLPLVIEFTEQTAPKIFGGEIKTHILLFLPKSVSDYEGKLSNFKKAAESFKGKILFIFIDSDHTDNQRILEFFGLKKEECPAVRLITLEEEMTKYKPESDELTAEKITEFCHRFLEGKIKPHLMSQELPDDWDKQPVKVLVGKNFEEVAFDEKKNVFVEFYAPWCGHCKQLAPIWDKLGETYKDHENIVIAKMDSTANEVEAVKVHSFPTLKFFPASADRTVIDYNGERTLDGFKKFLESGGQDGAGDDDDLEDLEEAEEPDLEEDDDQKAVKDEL
Experiment: Test Example 1: inhibition of interliposomal triglyceride (TG) transfer activity by MTP (also used for metabolites in Test Example 8)
Format: biochemical
Conditions: MTP-mediated 14C-triolein transfer between liposomes, 37° C., one hour; read-out: Test Example 1 MTP inhibition IC50
pIC50: −log10 of the molar value.
readout_kind: pIC50

{"columns": ["molecule", "subject_of_test", "pIC50"],
 "data": [
  ["CCOC(=O)C(COC(=O)Cc1ccc(NC(=O)c2ccccc2-c2ccc(C(F)(F)F)cc2)cc1C(F)(F)F)(C(=O)OCC)c1ccccc1", "Microsomal triglyceride transfer protein (MTP) from bovine liver (Bos taurus)", 7.64],
  ["CCOC(=O)C(COC(=O)Cc1ccc(N(C)C(=O)c2ccccc2-c2ccc(C(F)(F)F)cc2)cc1)(C(=O)OCC)c1ccccc1", "Microsomal triglyceride transfer protein (MTP) from bovine liver (Bos taurus)", 8.47]
]}

1: CCOC(=O)C(CCOC(=O)c1ccc(OC(=O)c2ccccc2-c2ccc(C(F)(F)F)cc2)cc1)(C(=O)OCC)c1ccccc1
2: CC(C(=O)OCC1(C(=O)NCC(F)(F)F)c2ccccc2-c2ccccc21)c1ccc(NC(=O)c2ccccc2-c2ccc(C(F)(F)F)cc2)cc1 (stereo not drawn)
3: CC(C)OC(=O)C(COC(=O)Cc1ccc(NC(=O)c2ccccc2-c2ccc(C(F)(F)F)cc2)cc1)(C(=O)OC(C)C)c1ccccc1
4: CCOC(=O)C(COC(=O)Cc1cccc(NC(=O)c2ccccc2-c2ccc(C(F)(F)F)cc2)c1)(C(=O)OCC)c1ccccc1
Query: List by increasing pIC50. Would you mind listing the labels in the order asked for?
Response: 4, 3, 2, 1
(4: 7.18, 3: 7.49, 2: 8.12, 1: 8.64)

====

System: HepG2 cells
Assay: Test Example 2: inhibition of apolipoprotein B secretion from HepG2 cells, ELISA (also used for metabolites in Test Example 8)
Format: cell-based
Details: Homo sapiens, 24 hours, apo B in supernatant by ELISA, read-out: Test Example 2 Inhibition of apo B secretion IC50
readout_kind: IC50 (µM)

{"columns": ["compound", "subject_of_test", "units_text", "IC50"],
 "data": [
  ["CCOC(=O)C(COC(=O)Cc1ccc(NC(=O)c2ccccc2-c2ccc(C(F)(F)F)cc2)c(O)c1)(C(=O)OCC)c1ccccc1 [Example 3-15]", "HepG2 cells", "µM", 0.0499],
  ["CCOC(=O)C(COC(=O)Cc1ccc(NC(=O)c2ccccc2-c2ccc(F)cc2)c(C(=O)N(C)C)c1)(C(=O)OCC)c1ccccc1 [Example 2-33]", "HepG2 cells", "µM", 0.013],
  ["CCOC(=O)C(COC(=O)Cc1ccc(NC(=O)c2ccccc2-c2ccc(C(F)(F)F)c(F)c2)c(C(=O)N(C)C)c1)(C(=O)OCC)c1ccccc1 [Example 2-61]", "HepG2 cells", "µM", 0.00038]
]}

P: CCOC(=O)C(CCOC(=O)c1ccc(NC(=O)c2ccccc2-c2ccc(C(F)(F)F)cc2)cc1Cl)(C(=O)OCC)c1ccccc1 [Example 6-16]
Q: CCOC(=O)C(COC(=O)Cc1ccc(NC(=O)c2ccccc2Oc2cccc(C(F)(F)F)c2)c(C(=O)N(C)C)c1)(C(=O)OCC)c1ccccc1 [Example 2-97]
R: CCOC(=O)C(COC(=O)Cc1ccc(NC(=O)c2ccccc2-c2ccc(C(F)(F)F)cc2)c(Cl)c1)(C(=O)OCC)c1ccccc1 [Example 1-84]
Query: Rank entries according to their IC50, from the largest number down. Rank them, then answer with their labels in that order.
Response: P, Q, R
(P: 0.17 µM, Q: 0.022 µM, R: 0.0044 µM)

A: CCOC(=O)C(COC(=O)Cc1ccc(NC(=O)c2ccccc2-c2ccc(C(F)(F)F)cc2)c(C(=O)N2CCCCC2)c1)(C(=O)OCC)c1ccccc1 [Example 2-23]
B: CCNC(=O)C(COC(=O)Cc1ccc(NC(=O)c2cccnc2-c2ccc(C(F)(F)F)cc2)c(C)c1)(C(=O)NCC)c1ccccc1 [Example 1-77]
Query: Compare the recorded IC50 of A and B ; state which is larger. Answer by quoting the chosen item's label.
Response: B

P: CCOC(=O)C(COC(=O)Cc1ccc(NC(=O)c2ccccc2-c2ccc(Br)cc2)c(C(=O)N(C)C)c1)(C(=O)OCC)c1ccccc1 [Example 2-34]
Q: CCNC(=O)C(CCOC(=O)Cc1ccc(NC(=O)c2ccccc2-c2ccc(C(F)(F)F)cc2)c(OCC)c1)(C(=O)NCC)c1ccccc1 [Example 3-8]
R: CCOC(=O)C(COC(=O)Cc1ccc(NC(=O)c2ccccc2-c2ccc(C(F)(F)F)cc2)c(C(=O)N(C)C)c1)(C(=O)OCC)c1cccc(OC)c1 [Example 2-76]
Query: Rank by IC50 (largest to smallest). Return value: ordered labels per request.
Response: P, R, Q

I: O=C(Cc1ccc(NC(=O)c2ccccc2-c2ccc(C(F)(F)F)cc2)cc1)OCC(C(=O)OC1CCCCC1)(C(=O)OC1CCCCC1)c1ccccc1 [Example 1-22]
II: CCNC(=O)C(COC(=O)Cc1ccc(NC(=O)c2ccccc2C2CCCCC2)cc1)(C(=O)NCC)c1ccccc1 [Example 1-69]
Query: I'm curious whether I or II has the smaller IC50 number. Which is it? Kindly give the label for the entry you pick.
Response: II
